# tgt: recombinantly expressed His-tagged protein corresponding to amino acids 575-869 of human Tyk2 (Homo sapiens, UniProt P29597)
# Sequence (P29597 with tags, fused parts or gaps): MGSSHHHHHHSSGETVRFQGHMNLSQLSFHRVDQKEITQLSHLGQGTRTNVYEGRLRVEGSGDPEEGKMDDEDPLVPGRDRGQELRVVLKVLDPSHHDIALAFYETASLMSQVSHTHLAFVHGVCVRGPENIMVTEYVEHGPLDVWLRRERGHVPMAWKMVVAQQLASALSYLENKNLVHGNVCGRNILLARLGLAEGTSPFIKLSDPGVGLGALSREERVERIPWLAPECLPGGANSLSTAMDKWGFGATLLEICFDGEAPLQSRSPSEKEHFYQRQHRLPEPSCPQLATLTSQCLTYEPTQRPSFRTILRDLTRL
# test.description: Probe displacement assay (scintillation proximity, tritiated probe)
# condition.label: His-tagged Tyk2 (575-869) 2.5 nM, 40 nM radiolabeled probe, 30 minutes at room temperature
# Protocol: The preparation of radiolabeled probe, (R)—N-(1-(3-(8-methyl-5-(methylamino)-8H-imidazo[4,5-d]thiazolo[5,4-b]pyridin-2-yl)phenyl)ethyl)-2-([^3H]methylsulfonyl)benzamide, was performed as described below: […]
parameter: EC50 (nM)
The response must be a number in nM with no trailing unit.

Problem: Form field: reported EC50 of CNc1cc(Nc2cccc(N3CCOC3=O)n2)nn2c(C(=O)NC3CC3)cnc12 [Example 87]
Result: 4.31

Problem: Form field: reported EC50 of CNc1cc(Nc2cc(F)ccc2F)nn2c(C(N)=O)cnc12 [Example 6]
Result: 4.21

Problem: Form field: reported EC50 of CNc1cc(Nc2cccnc2-n2cccn2)nn2c(C(=O)NC3CC3)cnc12 [Example 92]
Result: 30

Problem: Form field: reported EC50 of CNc1cc(Nc2cc(F)cc(F)c2OC)nn2c(C(=O)NC3CC3)cnc12 [Example 79]
Result: 6.95

----------
Measured EC50 of individual entries
# tgt: recombinantly expressed His-tagged protein corresponding to amino acids 575-869 of human Tyk2 (Homo sapiens)
# test.description: Probe displacement assay (scintillation proximity, tritiated probe)
# condition.label: His-tagged Tyk2 (575-869) 2.5 nM, 40 nM radiolabeled probe, 30 minutes at room temperature
The response must be a number in nM with no trailing unit.

query.smiles: CNc1cc(Nc2cccnc2-n2nc(C)cc2C(F)(F)F)nn2c(C(=O)NC3CC3)cnc12
EC50 (nM): 140
--
query.smiles: CNc1cc(Nc2cccnc2OC)nn2c(C(=O)NC3(C#N)CC3)cnc12
EC50 (nM): 7.25

Problem: Form field: reported EC50 of "Cc1cc(C)cc(Nc2cc(Nc3cc(C)n(C)n3)c3ncc(C(N)=O)n3n2)c1"
Result: 300

Problem: Form field: reported EC50 of "Cc1cc(C)cc(Nc2cc(NCC(C)C)c3ncc(C(N)=O)n3n2)c1"
Result: 200

----------
# tgt: recombinantly expressed His-tagged protein corresponding to amino acids 575-869 of human Tyk2 (Homo sapiens)
# test.description: Probe displacement assay (scintillation proximity, tritiated probe)
# condition.label: His-tagged Tyk2 (575-869) 2.5 nM, 40 nM radiolabeled probe, 30 minutes at room temperature
parameter: log10 EC50 (log10 of the value in nM)
Log10 applied to EC50; unit prior to transform: nM.

query.smiles: CNc1cc(Nc2cccc(OC(F)(F)F)c2)nn2c(C(=O)NC3CCC3)cnc12
log10 EC50: 0.86
--
query.smiles: CCNC(=O)c1ncccc1Nc1cc(NC)c2ncc(C(=O)NC3CC3)n2n1
log10 EC50: 2.20
--
query.smiles: CNc1cc(Nc2cccc(-n3cccn3)n2)nn2c(C(=O)NC3CC3)cnc12
log10 EC50: 0.97
--
query.smiles: CNc1cc(Nc2cc(F)cc(F)c2OC)nn2c(C(=O)NCC(C)(C)C)cnc12
log10 EC50: 0.85
--
query.smiles: CNc1cc(Nc2cccc(-n3ccc(C(F)(F)F)n3)n2)nn2c(C(=O)NC3CC3)cnc12
log10 EC50: 1.00

Proceeding to the next compound to report its log10 EC50.
Problem: Form field: reported log10 EC50 of "CNc1cc(Nc2cc(F)cc(C(F)(F)F)c2)nn2c(C(=O)NC3CCC3)cnc12"
Result: 0.84

----------
Measured log10 of IC50 of individual entries
# System: IFNα stimulated Kit225 T cells with a stably-integrated STAT-dependent luciferase reporter
# test.description: Kit225 T cell assay, IFNα stimulated STAT-dependent luciferase reporter
# Type: cell-based, human
# condition.label: KIT225; 200 U/mL human recombinant IFNα, 5-6 hours, luciferase; read-out: IFNa Kit225 Reporter, (IC50)
Log10 applied to IC50; unit prior to transform: nM.

molecule: CNc1cc(Nc2cc(F)cc(F)c2OC)nn2c(C(N)=O)cnc12 [Example 83]
log10 of IC50: 1.78

Problem: Form field: reported log10 of IC50 of CNc1cc(Nc2cccnc2OC)nn2c(C(=O)NCCO)cnc12 [Example 25]
Result: 1.95

Problem: Form field: reported log10 of IC50 of CNc1cc(N2CCc3ccccc32)nn2c(C(=O)NC3CCC3)cnc12 [Example 10]
Result: 1.90

----------
Measured log10 of EC50 of individual entries
# tgt: recombinantly expressed His-tagged protein corresponding to amino acids 575-869 of human Tyk2 (Homo sapiens)
# test.description: Probe displacement assay (scintillation proximity, tritiated probe)
# condition.label: His-tagged Tyk2 (575-869) 2.5 nM, 40 nM radiolabeled probe, 30 minutes at room temperature
Log10 applied to EC50; unit prior to transform: nM.

query.smiles: Cc1cc(C)cc(Nc2cc(N)c3ncc(C(N)=O)n3n2)c1
log10 of EC50: 1.00
//
query.smiles: CNc1cc(Nc2cccc(-c3ccc(C(F)(F)F)cc3F)c2)nn2c(C(=O)NC3CC3)cnc12
log10 of EC50: 1.82
//
query.smiles: CNc1cc(Nc2cccnc2C(=O)NCCOC)nn2c(C(=O)NC3CC3)cnc12
log10 of EC50: 0.88
//
query.smiles: CNc1nc(Nc2ccccc2OC)nn2c(C(N)=O)cnc12
log10 of EC50: 1.00
//
query.smiles: CNc1cc(Nc2cccnc2-n2ccc(C(F)(F)F)n2)nn2c(C(=O)NC3CC3)cnc12
log10 of EC50: 2.76
//
query.smiles: CNc1cc(Nc2cc(F)cc(F)c2)nn2c(C(=O)NCC(C)(C)CO)cnc12
log10 of EC50: 1.30

Problem: Form field: reported log10 of EC50 of "CNc1cc(Nc2cc(C)cc(F)c2)nn2c(C(=O)NCC(C)(C)O)cnc12"
Result: 0.77

Problem: Form field: reported log10 of EC50 of "CNc1cc(Nc2cccc(-c3ccc(C(F)(F)F)cc3F)c2)nn2c(C(=O)NC[C@@](C)(O)CO)cnc12"
Result: 0.88

----------
# tgt: recombinantly expressed His-tagged protein corresponding to amino acids 575-869 of human Tyk2 (Homo sapiens)
# test.description: Probe displacement assay (scintillation proximity, tritiated probe)
# condition.label: His-tagged Tyk2 (575-869) 2.5 nM, 40 nM radiolabeled probe, 30 minutes at room temperature
parameter: EC50

Some solved cases for reference:
molecule: Cc1cc(F)cc(Nc2cc(NCC(F)(F)F)c3ncc(C(N)=O)n3n2)c1 [Example 59]
EC50: 160 nM
--
molecule: CNc1cc(Nc2cccnc2-n2cccn2)nn2c(C(=O)NCCO)cnc12 [Example 30]
EC50: 20 nM
--
molecule: Cc1cc(C)cc(Nc2nc(NC3CC3)c3ncc(C(N)=O)n3n2)c1 [Example 70]
EC50: 80 nM

Problem: Form field: reported EC50 of Cc1cc(F)cc(Nc2ccc3ncc(C(=O)NC4CC4)n3n2)c1 [Example 68]
Result: 2.26 nM

Problem: Form field: reported EC50 of CCNC(=O)c1cnc2c(NC3CC3)cc(Nc3cc(C#N)cc(C(F)(F)F)c3)nn12 [Example 36]
Result: 350 nM

----------
# Tested on: IFNα stimulated Kit225 T cells with a stably-integrated STAT-dependent luciferase reporter
# test.description: Kit225 T cell assay, IFNα stimulated STAT-dependent luciferase reporter
# Assay type: cell-based, human
# condition.label: KIT225; 200 U/mL human recombinant IFNα, 5-6 hours, luciferase; read-out: IFNa Kit225 Reporter, (IC50)
parameter: pIC50
Field pIC50 (float): negative decimal logarithm of the concentration in molar.

Problem: Form field: reported pIC50 of "Cc1cc(C)cc(Nc2cc(NCCCN(C)C)c3ncc(C(N)=O)n3n2)c1"
Result: 5.89

----------
Measured IC50 of individual entries
# Tested on: IFNα stimulated Kit225 T cells with a stably-integrated STAT-dependent luciferase reporter
# test.description: Kit225 T cell assay, IFNα stimulated STAT-dependent luciferase reporter
# Type: cell-based, human
# condition.label: KIT225; 200 U/mL human recombinant IFNα, 5-6 hours, luciferase; read-out: IFNa Kit225 Reporter, (IC50)
Hi, when you answer, please include the unit after the number. Thanks!

compound: Cc1cc(C)cc(Nc2cc(Nc3cnccn3)c3ncc(C(N)=O)n3n2)c1
IC50: 12.5 µM
//
compound: CCCNc1cc(Nc2cc(C)cc(C)c2)nn2c(C(N)=O)cnc12
IC50: 1.17 µM
//
compound: CNc1nc(Nc2ccccc2OC)nn2c(C(N)=O)cnc12
IC50: 0.2 µM
//
compound: Cc1cc(C)cc(Nc2cc(NCCO)c3ncc(C(N)=O)n3n2)c1
IC50: 12.8 µM
//
compound: CNc1cc(Nc2ccccc2OC)nn2c(C(=O)NCC(C)(C)O)cnc12
IC50: 0.12 µM

Problem: API: value(readout= IC50, system= IFNα stimulated Kit225 T cells with a stably-integrated STAT-dependent luciferase reporter, query= CNc1cc(Nc2cccnc2-n2cccn2)nn2c(C(=O)NC(C)CO)cnc12 (centres unmarked) )
Result: 0.41 µM

Problem: API: value(readout= IC50, system= IFNα stimulated Kit225 T cells with a stably-integrated STAT-dependent luciferase reporter, query= "CNc1cc(Nc2cccnc2OC)nn2c(C(=O)NC3(C#N)CC3)cnc12" )
Result: 0.05 µM

Problem: API: value(readout= IC50, system= IFNα stimulated Kit225 T cells with a stably-integrated STAT-dependent luciferase reporter, query= "CCCCCNc1cc(Nc2cc(C)cc(C)c2)nn2c(C(N)=O)cnc12" )
Result: 3.62 µM
